experiment: Plasma stability assay (human plasma); format: in vitro ADME; conditions: 37° C., read-out: T½ in human plasma
measured_quantity: half-life at 3 μM

Which half-life at 3 μM value belongs to C=C(C)[C@@H]1CCC(C)=C[C@H]1c1c(O)cc(CCCCC)cc1OC(=O)N(C)CCOP(=O)(O)O.N.N [38b] ?
> 4 h

====

assay: Simulated Gastric Fluid stability assay; assay type: in vitro ADME; settings: simulated gastric fluid (SGF) with pepsin, pH 1.2; SGF pH about 1.2 with pepsin, 37° C.; read-out: T½ in SGF (converted)
half-life at 2 mM values for the compounds below.

Which half-life at 2 mM value belongs to C=C(C)[C@@H]1CCC(C)=C[C@H]1c1c(O)cc(CCCCC)cc1OC(=O)COP(=O)(O)O.N.N ?
5.25 h

Here is the next compound: C=C(C)[C@@H]1CCC(C)=C[C@H]1c1c(O)cc(CCCCC)cc1OC(=O)C1(OP(=O)(O)O)CC1.N.N
> 3 h

Here is the next compound: C=C(C)[C@@H]1CCC(C)=C[C@H]1c1c(O)cc(CCCCC)cc1O [CBD, Cannabidiol, reference compound]
> 3 h
